method: in vitro
condition info: human, Caco-2, Caco-2 (cm/sec) Papp
*1 amine or outer side, *2 acyl side, *3 side chain or, on linkers, in order; H or OH if unused. Where a SMILES comes first, the peptide text is derived from it. Bridges are numbered along the chain shown (N, C = ends). [ ]: non-standard residue; d: D form. The star is where a group is joined. ξ: configuration not given here. NMeAla(4-thiazolyl) = CN[C@@H](Cc1cscn1)C(=O)O; NMeF = CN[C@@H](Cc1ccccc1)C(=O)O; NMeβAla = CN(CCC(=O)[*:2])[*:1]; ξThr(3R) = C[C@@H](O)C(N)C(=O)O; NMeL = CN[C@@H](CC(C)C)C(=O)O; NMeA = CN[C@@H](C)C(=O)O; Piperidide = C1CCN(*)CC1; Sar = CNCC(=O)O; tBu = CC(C)(C)*
Rule: T for Papp not less than 0.07 ×10⁻⁶ cm/s, F for anything less.

Recorded results for 4 molecules are shown here.
Task: Reported Papp at or above 0.07 ×10⁻⁶ cm/s? CC(C)C[C@@H]1NC(=O)[C@H](Cc2ccccc2)N(C)C(=O)[C@H](COC(C)(C)C)NC(=O)[C@H](Cc2ccccc2)N(C)C(=O)[C@H](Cc2ccccc2)N(C)C(=O)[C@H](CC(C)C)N(C)C(=O)[C@@H](CC(C)C)NC(=O)C[C@@H](C(=O)N2CCCCC2)NC(=O)[C@H](Cc2ccccc2)N(C)C(=O)[C@H]([C@@H](C)O)NC(=O)[C@H](CC(C)C)N(C)C1=O [pd243] ([dL][NMeL][NMeF][NMeF]S(tBu)[NMeF]L[NMeL]T[NMeF]D-Piperidide; lactam N-11)
Output: F

Task: Reported Papp at or above 0.07 ×10⁻⁶ cm/s? CC(C)C[C@@H]1NC(=O)[C@H](Cc2ccccc2)N(C)C(=O)C([C@@H](C)O)NC(=O)[C@H](Cc2ccccc2)N(C)C(=O)CN(C)C(=O)[C@H](Cc2ccccc2)NC(=O)[C@H](CC(C)C)N(C)C(=O)[C@H](CC(C)C)NC(=O)[C@H](Cc2ccccc2)N(C)C(=O)[C@H](C)N(C)C(=O)C[C@@H](C(=O)N2CCCCC2)NC1=O (stereo partly drawn) [pd231] ([NMeA][NMeF]L[NMeL]F[Sar][NMeF][ξThr(3R)][NMeF]LD-Piperidide; lactam N-11)
Output: T

Task: Reported Papp at or above 0.07 ×10⁻⁶ cm/s? CC(C)C[C@@H]1NC(=O)[C@H](Cc2ccccc2)N(C)C(=O)[C@H](C)N(C)C(=O)C[C@@H](C(=O)N2CCCCC2)NC(=O)[C@H](CC(C)C)N(C)C(=O)[C@H](Cc2ccccc2)N(C)C(=O)[C@H](Cc2ccccc2)NC(=O)[C@H](Cc2cscn2)N(C)C(=O)[C@H](C)N(C)C(=O)[C@H](CC(C)C)N(C)C(=O)[C@H]([C@@H](C)O)NC1=O [pd238] ([NMeA][NMeF]LT[NMeL][NMeA][NMeAla(4-thiazolyl)]F[NMeF][NMeL]D-Piperidide; lactam N-11)
Output: T

Task: Reported Papp at or above 0.07 ×10⁻⁶ cm/s? CC[C@H](C)[C@@H]1NC(=O)[C@H](Cc2ccccc2)N(C)C(=O)[C@H](C)N(C)C(=O)[C@H](CC(C)C)N(C)C(=O)[C@H](Cc2ccccc2)N(C)C(=O)CCN(C)C(=O)C[C@@H](C(=O)N(C)[C@@H](Cc2ccccc2)C(=O)N(C)[C@@H](Cc2ccccc2)C(=O)N[C@@H](C)C(=O)N2CCCCC2)NC(=O)[C@H]([C@@H](C)O)NC(=O)[C@H](CC(C)C)N(C)C(=O)[C@H](CC(C)C)N(C)C1=O [pd239] ([NMeβAla][NMeF][NMeL][NMeA][NMeF]I[NMeL][NMeL]TD[NMeF][NMeF]A-Piperidide; lactam N-10)
Output: F

API: the following record is the query input.
Task: Reported Papp at or above 0.07 ×10⁻⁶ cm/s? CC(C)C[C@H]1C(=O)N(C)[C@@H](Cc2ccccc2)C(=O)N(C)[C@@H](Cc2ccccc2)C(=O)N[C@@H]([C@@H](C)O)C(=O)N(C)[C@@H](C)C(=O)N(C)[C@@H](Cc2ccccc2)C(=O)N[C@H](C(=O)N2CCCCC2)CC(=O)N(C)[C@@H](C)C(=O)N(C)[C@@H](Cc2ccccc2)C(=O)N(C)[C@@H](CC(C)C)C(=O)N[C@@H](C(C)C)C(=O)N1C [pd233] ([NMeA][NMeF][NMeL]V[NMeL][NMeF][NMeF]T[NMeA][NMeF]D-Piperidide; lactam N-11)
Output: T
